# Test summary: in vivo
# Set-up: species or system Holstein cows
# Condition notes: female, Holstein, bovine, 150 mg
Numbered stars: 1 amine (or outer) side, 2 acyl side, 3 side chain; on linkers, the order of the positions; unused ones are H or OH. Bridge positions count the residues as written; N and C are the ends. Square brackets hold non-standard residues; d marks the D form. Peptide text beside a SMILES is read from it. Phe(3R-OH) = O=C([C@@H](N[*:1])[C@H](O[*:3])c1ccccc1)[*:2]; Asn(3S-OH) = NC(=O)[C@@H](O)[C@H](N)C(=O)O; Leu(3R-OH) = CC(C)[C@@H](O)[C@H](N)C(=O)O; aThr = C[C@H](O)[C@H](N)C(=O)O
Value type: Tmax
Include the unit right after the number.

Quick one: Tmax for CC[C@H](C)[C@@H]1NC(=O)[C@@H](CCCNC(=N)N)NC(=O)[C@H](CC(C)C)NC(=O)[C@H]([C@H](O)C(C)C)NC(=O)[C@@H](NC(=O)[C@H](CC(C)C)NC(=O)[C@H](N)CC(C)C)[C@@H](c2ccccc2)OC(=O)[C@H](CO)NC(=O)[C@H]([C@H](O)C(N)=O)NC(=O)CNC(=O)[C@H]([C@H](C)O)NC1=O [lysobactin] (H-[dL]L[Phe(3R-OH)][Leu(3R-OH)]L[dR]I[aThr]G[Asn(3S-OH)]S; ester 3-C) ?
4 h
